Source: ChEMBL document CHEMBL4673193

tested on: Trypanosoma brucei brucei; test: Antitrypanosomal activity against Trypanosoma brucei brucei 427 assessed as parasite growth inhibition incubated for 48 hrs by resazurin dye based assay; format: functional, organism-based; settings: Trypanosoma brucei, 427, 48 h; read-out: IC50
Reported IC50 values are given for each entry in this list.
Numeric only. Scale: nM

>>> print(df.to_string())
                            chemical_string  measured_result
0  COc1cccc(-c2c(C(=O)Nc3nc4c(s3)C(=O)CCC4)sc3ccccc23)c1             9390
1  CC1(C)CC(=O)c2sc(NC(=O)c3nc4ccccc4s3)nc2C1             1410
2  COc1ccc(-c2c(C(=O)Nc3nc4c(s3)C(=O)CC(C)(C)C4)sc3ccccc23)cc1             2910

Give IC50 (Trypanosoma brucei brucei) of the following compound: `N=C(N)c1ccc(OCCCCCOc2ccc(C(=N)N)cc2)cc1`
2.13

Give IC50 (Trypanosoma brucei brucei) of the following compound: `O=C1CCCc2nc(NC(=O)c3sc4ccccc4c3Cl)sc21`
2500

Give IC50 (Trypanosoma brucei brucei) of the following compound: `COc1cccc(-c2c(C(=O)Nc3nc4c(s3)C(=O)CC(C)(C)C4)sc3ccccc23)c1`
2210

Give IC50 (Trypanosoma brucei brucei) of the following compound: `O=C1CCCc2nc(NC(=O)c3sc4ccccc4c3-c3cccc4ccccc34)sc21`
6380

Give IC50 (Trypanosoma brucei brucei) of the following compound: `Cc1ccc2c(Cl)c(C(=O)Nc3nc4c(s3)C(=O)CCC4)sc2c1`
7770

Give IC50 (Trypanosoma brucei brucei) of the following compound: `COc1ccc2sc(C(=O)Nc3nc4c(s3)C(=O)CC(C)(C)C4)c(Cl)c2c1`
5860

Give IC50 (Trypanosoma brucei brucei) of the following compound: `CC1(C)CC(=O)c2sc(NC(=O)c3sc4c(Br)cccc4c3Cl)nc2C1`
320

---

system: HEK293; experiment: Cytotoxicity against human HEK293 cells assessed as reduction in cell viability at 83.3 uM incubated for 48 hrs by resazurin dye based assay relative to control; settings: hek293, 48 h
Parameter Measured: Activity

# example entries with known answers
                            chemical_string  parameter_measured  measured_result
0              O=C(Nc1nccs1)c1sc2ccccc2c1Cl            Activity            < 50%
1  COc1cccc(-c2c(C(=O)Nc3nc4c(s3)C(=O)CC(C)(C)C4)sc3ccccc23)c1            Activity            < 50%

Entry `COc1ccc(-c2c(C(=O)Nc3nc4c(s3)C(=O)CC(C)(C)C4)sc3ccccc23)cc1` has what Activity?
< 50%

Entry `C=CCN(C(=O)c1sc2ccccc2c1Cl)c1nc2c(s1)C(=O)CCC2` has what Activity?
< 50%

Entry `O=C(Nc1nc2c(s1)CCCC2)c1sc2ccccc2c1Cl` has what Activity?
< 50%

Entry `O=C1CCCc2nc(NC(=O)c3sc4ccccc4c3Cl)sc21` has what Activity?
< 50%

Entry `O=C1CCCc2nc(NC(=O)c3sc4ccccc4c3-c3ccccc3)sc21` has what Activity?
< 50%

Entry `Cc1ccc2c(Cl)c(C(=O)Nc3nc4c(s3)C(=O)CCC4)sc2c1` has what Activity?
< 50%

---

Reported pIC50 values are given for each entry in this list.
tested on: Trypanosoma brucei brucei; experiment: Antitrypanosomal activity against Trypanosoma brucei brucei 427 assessed as parasite growth inhibition incubated for 48 hrs by resazurin dye based assay; type: functional, organism-based; settings: Trypanosoma brucei, 427, 48 h; read-out: IC50
Please express pIC50 as -log10 of the molar concentration.

                            chemical_string      target_or_test_system  measured_result
0  Cc1ccc2c(Cl)c(C(=O)Nc3nc4c(s3)C(=O)CC(C)(C)C4)sc2c1  Trypanosoma brucei brucei             5.64
1  CC1(C)CC(=O)c2sc(NC(=O)c3sc4cc(Br)ccc4c3Cl)nc2C1  Trypanosoma brucei brucei             5.19

Entry `CC1(C)CC(=O)c2sc(NC(=O)c3sc4ccccc4c3Cl)nc2C1` has what pIC50?
6.14

---

test system: HEK293; test: Cytotoxicity against human HEK293 cells assessed as reduction in cell viability at 83.3 uM incubated for 48 hrs by resazurin dye based assay relative to control; conditions: hek293, 48 h
Reported Activity values are given for each entry in this list.
Numeric only. Scale: %

                            chemical_string  measured_result
0  COc1ccc(-c2c(C(=O)Nc3nc4c(s3)C(=O)CCC4)sc3ccccc23)cc1               88

Entry `O=C1CCCc2nc(NC(=O)c3sc4ccccc4c3-c3ccc(C(F)(F)F)cc3)sc21` has what Activity?
59

Entry `CC1(C)CC(=O)c2sc(NC(=O)c3sc4ccccc4c3-c3cccc4ccccc34)nc2C1` has what Activity?
52

Entry `COc1cccc(-c2c(C(=O)Nc3nc4c(s3)C(=O)CCC4)sc3ccccc23)c1` has what Activity?
88

---

tested on: Trypanosoma brucei brucei; assay: Antitrypanosomal activity against Trypanosoma brucei brucei 427 assessed as parasite growth inhibition incubated for 48 hrs by resazurin dye based assay; format: functional, organism-based; details: Trypanosoma brucei, 427, 48 h; read-out: IC50
Parameter Measured: pIC50
Please express pIC50 as -log10 of the molar concentration.

# example entries with known answers
In [3]: df
Out[3]:
                            chemical_string      target_or_test_system  measured_result
0  CC1(C)CC(=O)c2sc(NC(=O)c3cc4cccc(-c5ccccc5)c4s3)nc2C1  Trypanosoma brucei brucei             5.55
1  COc1ccc(-c2c(C(=O)Nc3nc4c(s3)C(=O)CCC4)sc3ccccc23)cc1  Trypanosoma brucei brucei             5.14

Next, consider the following compound.
Give pIC50 (Trypanosoma brucei brucei) of the following compound: `CC1(C)CC(=O)c2sc(NC(=O)c3cc4ccccc4s3)nc2C1`
6.12
